We begin with a simple list: items and their reported TGI.
# Test system: U251 CNS
# Assay notes: NCI tumour cell line growth inhibition, 48 h

# Molecule, Subject of test, TGI
records = [
    ("CO[C@H](C(=O)O[C@H]1C(=O)N2CC[C@@H]3CCC[C@H]1C32C)c1ccccc1 (stereo not given in full)", "U251 CNS", "> 100 µM"),
    ("O=C(O)C1CC(C2CCCCN2)CN2CCCCC12 (stereo not given)", "U251 CNS", "> 100 µM"),
    ("O=C1C(Cl)=C(Cl)C(=O)N1c1ccccc1Cl", "U251 CNS", "> 100 µM"),
]

What value of TGI has been reported for the following molecule? O=C(NCCCl)NCCN1c2nc3ccccc3cc2Sc2cc3ccccc3nc21
12.3 µM

What value of TGI has been reported for the following molecule? CCC1(OC(=O)CNC)C(=O)OCc2c1cc1n(c2=O)Cc2cc3ccccc3nc2-1 (stereo not given)
0.293 µM

meta.source: PubChem BioAssay (NCI)
